Data provenance: paper PMC12736951

The following compounds each carry a recorded MIC for S. aureus ATCC 29213.
Report only the number, with the unit µg/mL understood.

Enquiry: Find MIC (S. aureus ATCC 29213) for the entry CNC1C(OC2OC(CNCCCNC(=N)N)C(N)C(O)C2O)OC2CC(N)C(OC3C(N)CC(N)C(O)C3O)OC2C1O (centres unmarked)
Return: 0.5

Enquiry: Find MIC (S. aureus ATCC 29213) for the entry CNC1C(OC2OC(CNCCNC(=N)N)C(N)C(O)C2O)OC2CC(N)C(OC3C(N)CC(N)C(O)C3O)OC2C1O (centres unmarked)
Return: 0.5

Enquiry: Find MIC (S. aureus ATCC 29213) for the entry CN[C@@H]1[C@@H](O[C@H]2O[C@H](CO)[C@@H](N)[C@H](O)[C@H]2O)OC2C[C@@H](N)[C@@H](O[C@H]3[C@H](O)[C@@H](O)[C@H](N)C[C@@H]3N)OC2[C@@H]1O (some centres unmarked)
Return: 1

Enquiry: Find MIC (S. aureus ATCC 29213) for the entry CNC1C(OC2OC(CNCCCN)C(N)C(O)C2O)OC2CC(N)C(OC3C(N)CC(N)C(O)C3O)OC2C1O (centres unmarked)
Return: 2

Enquiry: Find MIC (S. aureus ATCC 29213) for the entry CNC1C(OC2OC(CNCCN)C(N)C(O)C2O)OC2CC(N)C(OC3C(N)CC(N)C(O)C3O)OC2C1O (centres unmarked)
Return: 2
